# ASSAY_TARGET: DPP4 (Homo sapiens, UniProt P27487)
# Sequence (P27487 whole entry): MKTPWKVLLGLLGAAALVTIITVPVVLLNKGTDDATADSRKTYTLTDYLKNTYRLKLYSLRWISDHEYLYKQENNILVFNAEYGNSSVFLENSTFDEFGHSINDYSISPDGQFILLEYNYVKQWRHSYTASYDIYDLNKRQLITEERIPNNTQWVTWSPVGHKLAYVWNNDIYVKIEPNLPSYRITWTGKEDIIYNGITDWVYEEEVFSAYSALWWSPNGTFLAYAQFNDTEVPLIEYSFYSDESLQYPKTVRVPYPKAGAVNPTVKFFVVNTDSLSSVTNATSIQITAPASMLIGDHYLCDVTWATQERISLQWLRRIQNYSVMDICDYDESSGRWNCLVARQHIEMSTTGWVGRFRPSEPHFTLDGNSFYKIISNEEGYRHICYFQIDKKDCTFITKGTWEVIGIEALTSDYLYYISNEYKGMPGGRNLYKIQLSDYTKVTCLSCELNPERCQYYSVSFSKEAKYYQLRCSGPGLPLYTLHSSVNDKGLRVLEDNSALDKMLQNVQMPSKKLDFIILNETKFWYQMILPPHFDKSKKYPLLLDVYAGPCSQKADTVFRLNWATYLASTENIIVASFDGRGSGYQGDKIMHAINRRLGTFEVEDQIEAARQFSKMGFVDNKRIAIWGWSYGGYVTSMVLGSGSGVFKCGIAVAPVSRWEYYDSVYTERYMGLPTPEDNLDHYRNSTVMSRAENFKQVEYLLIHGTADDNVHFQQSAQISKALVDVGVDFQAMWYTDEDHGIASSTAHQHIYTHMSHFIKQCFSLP
# PROTOCOL_DETAILS: DPP4 inhibition, fluorogenic substrate H-Gly-Pro-AMC
# Format: biochemical
# Set-up: purchased R&D Systems
# APPLIED_CONDITIONS: recombinant human DPP4
Overview of recorded IC50 for various molecules

chemical_string=CN(c1cccc2cnccc12)C1CCN(CC(=O)N2C[C@@H](F)C[C@H]2C#N)CC1 result="> 10 µM"

Data request: Recorded IC50 of N#C[C@@H]1C[C@H](F)CN1C(=O)CN1CC[C@H](Nc2ccc(C(=O)Nc3ccccc3)c3ncccc23)C1 , please.
Data returned: 1.21 µM

Data request: May I ask what IC50 has been recorded for N#C[C@@H]1CCCN1C(=O)CN1CC[C@H](Nc2ccc3ncccc3c2)C1 ?
Data returned: > 10 µM

Data request: IC50 for N#C[C@@H]1C[C@H](F)CN1C(=O)CN1CCC(Oc2cc(C(F)(F)F)nc3ccccc23)CC1 ?
Data returned: > 10 µM

Data request: Entry N#C[C@@H]1CCCN1C(=O)CN1CC[C@H](Nc2cccc3ncc(Cl)cc23)C1 has what IC50?
Data returned: > 10 µM

Data request: Field request: IC50 | item: N#C[C@@H]1C[C@H](F)CN1C(=O)CN1CCC(Nc2cccc3ncc(C(=O)Nc4ccccc4)cc23)CC1
Data returned: 6.89 µM

---

# ASSAY_TARGET: recombinant human DPP8 (Homo sapiens, UniProt Q6V1X1)
# Construct: purchased PBS Bioscience
# Sequence (Q6V1X1 whole entry): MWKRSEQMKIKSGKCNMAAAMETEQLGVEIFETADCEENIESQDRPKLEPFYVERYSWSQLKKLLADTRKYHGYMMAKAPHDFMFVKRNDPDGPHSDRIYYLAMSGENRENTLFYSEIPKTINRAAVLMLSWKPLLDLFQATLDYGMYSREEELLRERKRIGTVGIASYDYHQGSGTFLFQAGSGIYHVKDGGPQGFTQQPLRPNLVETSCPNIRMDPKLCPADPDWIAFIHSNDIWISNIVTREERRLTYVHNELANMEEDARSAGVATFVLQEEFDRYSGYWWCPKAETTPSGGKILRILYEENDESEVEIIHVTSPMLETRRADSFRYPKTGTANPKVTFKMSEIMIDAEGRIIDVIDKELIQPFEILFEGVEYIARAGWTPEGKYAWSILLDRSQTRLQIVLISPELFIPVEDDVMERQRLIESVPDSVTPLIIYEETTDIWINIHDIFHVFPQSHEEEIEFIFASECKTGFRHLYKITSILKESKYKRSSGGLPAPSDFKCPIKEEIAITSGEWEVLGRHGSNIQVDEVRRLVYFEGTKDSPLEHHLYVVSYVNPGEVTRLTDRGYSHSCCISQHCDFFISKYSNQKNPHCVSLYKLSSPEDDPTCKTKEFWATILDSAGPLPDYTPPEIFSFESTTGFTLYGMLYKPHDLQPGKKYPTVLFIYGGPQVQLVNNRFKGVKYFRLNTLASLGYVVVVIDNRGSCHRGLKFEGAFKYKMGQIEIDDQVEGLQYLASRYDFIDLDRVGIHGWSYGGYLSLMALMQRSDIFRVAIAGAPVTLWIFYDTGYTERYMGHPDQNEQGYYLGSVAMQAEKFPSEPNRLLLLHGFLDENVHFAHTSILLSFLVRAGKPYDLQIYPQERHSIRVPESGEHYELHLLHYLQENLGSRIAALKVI
# PROTOCOL_DETAILS: DPP8 inhibition, fluorogenic substrate Z-Ala-Pro-AMC
# Format: biochemical
# APPLIED_CONDITIONS: recombinant human DPP8
OBSERVED_PROPERTY: IC50

Data request: Which value of IC50 has been reported for N#C[C@@H]1C[C@H](F)CN1C(=O)CN1CCC(Nc2ccc(Cl)c3cnccc23)CC1 [Example 353] in the records?
Data returned: > 10 µM

Data request: Which IC50 reading was recorded for the molecule CN(c1ccc2ncccc2c1)C1CCN(CC(=O)N2C[C@@H](F)C[C@H]2C#N)CC1 [Example 315] ?
Data returned: > 10 µM

Data request: Need IC50, item CN(c1ccc2ncccc2c1)C1CCN(CC(=O)N2CCC[C@H]2C#N)CC1 [Example 310]
Data returned: > 100 µM

Data request: Would you kindly share the measured IC50 for COc1cc2c(NC3CCN(CC(=O)N4C[C@@H](F)C[C@H]4C#N)CC3)cccc2cn1 [Example 355] ?
Data returned: > 100 µM

Data request: IC50 for N#C[C@@H]1CCCN1C(=O)CN1CC[C@H](Nc2cc(C(F)(F)F)cc3ncccc23)C1 [Example 238] ?
Data returned: > 100 µM

---

Reported IC50 values are given for each entry in this list.
# ASSAY_TARGET: recombinant human DPP9 (Homo sapiens, UniProt Q86TI2)
# Construct: purchased R&D Systems
# Sequence (Q86TI2 whole entry): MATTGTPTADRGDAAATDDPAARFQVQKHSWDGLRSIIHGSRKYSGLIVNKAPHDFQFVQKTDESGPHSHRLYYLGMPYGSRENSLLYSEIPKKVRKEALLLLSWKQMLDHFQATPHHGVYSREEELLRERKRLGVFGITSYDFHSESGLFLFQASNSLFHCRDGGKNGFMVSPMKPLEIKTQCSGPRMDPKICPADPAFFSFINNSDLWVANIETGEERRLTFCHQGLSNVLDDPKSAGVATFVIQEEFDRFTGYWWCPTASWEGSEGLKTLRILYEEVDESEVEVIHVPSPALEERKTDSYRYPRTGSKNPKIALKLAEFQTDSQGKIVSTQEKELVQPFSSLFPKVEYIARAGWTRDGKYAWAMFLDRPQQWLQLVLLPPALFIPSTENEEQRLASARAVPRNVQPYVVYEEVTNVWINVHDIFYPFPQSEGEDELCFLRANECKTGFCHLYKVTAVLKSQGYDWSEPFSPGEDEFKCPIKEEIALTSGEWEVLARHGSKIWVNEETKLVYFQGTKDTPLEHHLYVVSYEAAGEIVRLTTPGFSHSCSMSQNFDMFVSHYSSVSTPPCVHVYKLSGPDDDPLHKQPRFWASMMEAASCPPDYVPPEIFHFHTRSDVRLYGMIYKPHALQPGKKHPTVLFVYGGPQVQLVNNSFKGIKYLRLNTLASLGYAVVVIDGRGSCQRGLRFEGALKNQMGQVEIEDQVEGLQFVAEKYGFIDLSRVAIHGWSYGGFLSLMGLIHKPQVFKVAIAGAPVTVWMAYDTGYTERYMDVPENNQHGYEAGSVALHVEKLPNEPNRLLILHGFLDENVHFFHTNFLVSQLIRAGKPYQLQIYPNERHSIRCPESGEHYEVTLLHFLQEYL
# PROTOCOL_DETAILS: DPP9 inhibition, fluorogenic substrate H-Gly-Pro-AMC
# Assay type: biochemical
# APPLIED_CONDITIONS: 25° C., H-Gly-Pro-AMC substrate

chemical_string=CN(c1ccc2cccnc2c1)[C@H]1CCN(CC(=O)N2CCC[C@H]2C#N)C1 result="≥ 100 µM"

Data request: Lab note: need IC50 with recombinant human DPP9 (Homo sapiens, UniProt Q86TI2) for entry N#C[C@@H]1CCCN1C(=O)CN1CCC(Oc2cccc3ncccc23)CC1 , please look it up.
Data returned: > 100 µM

Data request: IC50 of N#C[C@@H]1CCCN1C(=O)CN1CC[C@H](NC(=O)c2csc3ccccc23)C1 on recombinant human DPP9 (Homo sapiens, UniProt Q86TI2)?
Data returned: > 100 µM

Data request: Param readout = IC50; param system = recombinant human DPP9 (Homo sapiens, UniProt Q86TI2); param query = N#C[C@@H]1CCCN1C(=O)CN1CC[C@H](Oc2ncnc3sccc23)C1 ; response: value
Data returned: > 100 µM
